study-target: GOPC, Q9HD26
measurement-notes: holdup assay
Design: key: below the threshold = too weak to quantify, mostly under pKd 3.1 to 4
condition-label: plain residues with an end cap or a label only (N-terminal biotin on a linker: ahx)
quantity-name: pKd

Example entries begin here.
APSRKLNTEI [TIAM1, Q13009]	below the threshold
TQKFRASTAL [FRMPD1, Q5SYB0]	4.12
TEAKLTETNA [MYO18A, Q92614]	below the threshold
HTHSYIETHV [CNKSR2, Q8WXI2]	below the threshold
QDEKVKESYV [ABCA1, O95477]	4.28

For each of the binders below, state pKd.
1. TESNLQTSSC [CGN, Q9P2M7]
2. EKQAKGDTEF [CACYBP, Q9HB71]
3. QNTDDVQTSF [ACE2, Q9BYF1]
4. QPRTWLQSPV [RTKN, Q9BST9]

Output line:
below the threshold
below the threshold
below the threshold
4.07
